Target: T1, His-tagged human MET antigen (human, UniProt P08581 25-932)
T1 construct: Soluble antigen used as analyte in SPR; not shown: His tag
T1 sequence (P08581 25-932 limits assumed): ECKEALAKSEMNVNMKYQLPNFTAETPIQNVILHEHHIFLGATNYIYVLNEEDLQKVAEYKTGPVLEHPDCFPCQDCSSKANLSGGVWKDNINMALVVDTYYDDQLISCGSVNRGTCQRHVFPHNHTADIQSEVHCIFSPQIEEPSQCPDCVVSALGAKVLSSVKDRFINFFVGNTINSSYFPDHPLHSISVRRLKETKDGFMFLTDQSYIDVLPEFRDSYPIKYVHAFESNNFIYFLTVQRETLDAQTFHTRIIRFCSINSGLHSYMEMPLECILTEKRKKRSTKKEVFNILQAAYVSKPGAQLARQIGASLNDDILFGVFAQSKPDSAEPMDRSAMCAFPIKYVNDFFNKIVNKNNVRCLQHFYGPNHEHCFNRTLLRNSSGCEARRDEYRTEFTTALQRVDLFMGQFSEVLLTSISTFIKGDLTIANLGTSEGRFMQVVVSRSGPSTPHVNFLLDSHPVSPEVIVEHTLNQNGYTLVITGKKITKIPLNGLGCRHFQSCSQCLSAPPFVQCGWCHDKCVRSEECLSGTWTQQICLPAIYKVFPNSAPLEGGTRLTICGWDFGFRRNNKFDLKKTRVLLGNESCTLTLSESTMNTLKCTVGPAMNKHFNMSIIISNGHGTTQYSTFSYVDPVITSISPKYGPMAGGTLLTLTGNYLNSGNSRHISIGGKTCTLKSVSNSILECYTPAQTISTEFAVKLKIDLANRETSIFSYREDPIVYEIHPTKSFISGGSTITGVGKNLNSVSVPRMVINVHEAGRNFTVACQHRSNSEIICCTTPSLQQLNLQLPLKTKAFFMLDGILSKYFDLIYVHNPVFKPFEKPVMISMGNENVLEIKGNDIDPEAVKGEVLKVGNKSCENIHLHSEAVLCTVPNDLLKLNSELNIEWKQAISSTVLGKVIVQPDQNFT
Assay: SPR, Biacore 8K; antibody captured, His-tagged human MET antigen 6.25-400 nM as analyte; 1:1 Langmuir
Collected Kd values appear next to each entry.
Output spec: scalar in nM, unitless text.

{"columns": ["binder", "assay.endpoint", "val"],
 "data": [
  ["Antibody A13 N30T (antibody, human IgG1, kappa, V domains shown, Differs from antibody A13 only by N to T at position 30 of VL) VH: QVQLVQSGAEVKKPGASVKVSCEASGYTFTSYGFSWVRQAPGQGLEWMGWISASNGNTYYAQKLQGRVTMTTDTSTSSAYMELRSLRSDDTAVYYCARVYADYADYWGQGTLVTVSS VL: DIQMTQSPSSVSASVGDRVTITCRASQGITTWLAWYQQKPGKAPKLLIYAASSLKSGVPSRFSGSGSGADFTLTISSLQPEDFATYYCQQANSFPLTFGGGTKVEIKR", "Kd", 17]
]}

With those in mind, consider the next binder.
Enquiry: Read the entry Antibody A13 N30Q (antibody, human IgG1, kappa, V domains shown, Differs from antibody A13 only by N to Q at position 30 of VL) VH: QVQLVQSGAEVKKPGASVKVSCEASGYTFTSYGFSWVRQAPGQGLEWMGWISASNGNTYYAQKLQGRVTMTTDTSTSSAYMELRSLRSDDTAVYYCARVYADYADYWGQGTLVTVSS VL: DIQMTQSPSSVSASVGDRVTITCRASQGIQTWLAWYQQKPGKAPKLLIYAASSLKSGVPSRFSGSGSGADFTLTISSLQPEDFATYYCQQANSFPLTFGGGTKVEIKR and write its reported Kd.
Return: 17.6
